# Lookup of reported FOB Fold Over Background keyed by entry
# Tested System: T1, mouse TREM2 on BWZ cells (mouse, UniProt Q99NH8 19-227)
# T1 construct: whole, on cells; also called BWZ Mouse TREM2
# T1 sequence (looked up): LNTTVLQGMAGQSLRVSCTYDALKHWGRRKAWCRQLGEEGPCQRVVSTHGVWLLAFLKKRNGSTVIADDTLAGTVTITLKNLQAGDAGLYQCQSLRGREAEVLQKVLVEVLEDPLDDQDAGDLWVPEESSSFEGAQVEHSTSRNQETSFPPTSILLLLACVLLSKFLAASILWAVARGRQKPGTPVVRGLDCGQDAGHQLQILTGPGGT
# Method Summary: FACS, BWZ mouse TREM2
Supply the numeric figure in fold, leaving out any unit text.

Sample answers from the record:
Binder	Reported Endpoint	Value
T1-32 (antibody, IgG1, V domains shown, huIgG1; also called TI-32) VH: QLQLQESGPGLVKPSETLSLTCTVSGGSISSSSYYWGWIRQPPGKGLEWIGSIYYSGSTYYNPSLKSRVTISVDTSKNQFSLKLSSVTAADTAVYYCARDAPAVVGESPAFDIWGQGTMVTVSS VL: DIQMTQSPSSLSASVGDRVTITCRASQSISRYLNWYQQKPGKAPKLLIYAASSLQSGVPSRFSGSGSGTDFTLTISSLQPEDFATYYCQQSLDLPFTFGGGTKVEIK	FOB Fold Over Background	1.2
T1-28 (antibody, IgG1, V domains shown, huIgG1; also called TI-28) VH: EVQLVESGGGLVKPGGSLRLSCAASGFTFSSYSMNWVRQAPGKGLEWVSSISSSSNYIYYADSVKGRFTISRDNAKNSLYLQMNSLRAEDTAVYYCARGPSQYYYDSSAIEAFDIWGQGTMVTVSS VL: EIVLTQSPATLSVSPGERATLSCRASQSVGSNLAWYQQKPGQAPRLLIYGASTRATGIPARFSGSGSGTEFTLTISSLQSEDFAVYYCQQYLYFPLTFGGGTKVEIK	FOB Fold Over Background	1.1

// sample T1-29 (antibody, IgG1, V domains shown, huIgG1; also called TI-29) VH: QLQLQESGPGLVKPSETLSLTCTVSGGSISSSSYYWGWIRQPPGKGLEWIGSIYYSGSTYYNPSLKSRVTISVDTSKNQFSLKLSSVTAADTAVYYCARDGGGTAQADGAYYYGMDVWGQGTTVTVSS VL: EIVLTQSPATLSLSPGERATLSCRASQSVSSYLAWYQQKPGQAPRLLIYDASNRATGIPARFSGSGSGTDFTLTISSLEPEDFAVYYCQQGVNYPFTFGGGTKVEIK , its FOB Fold Over Background was 1.2
